Can you tell me viability, T/C for the items I'm about to list?
Test system: 885724-159-R-J1-PDC complex spheroid viability
experimental-protocol: Anticancer human tumor 885724-159-R-J1-PDC patient-derived pancreatic adenocarcinoma cell line growth inhibition [POLQ]
experimental-context: second compound 0.1 µM; first compound 0.00316 µM; active compounds read low
Give just the numeric value; % need not be written.

// lookup viability, T/C for CCc1c2c(nc3ccc(O)cc13)-c1cc3c(c(=O)n1C2)COC(=O)[C@]3(O)CC + Cc1cccc(N(C)C(=O)C2C(O)CCN2c2nc(C)cc(C(F)(F)F)c2C#N)c1 80.6

// lookup viability, T/C for COc1cccc(OCCCN)c1-c1cc(Nc2cnc(C#N)cn2)n[nH]1 + COC1C(OC(N)=O)C(O)C(Oc2ccc3c(O)c(NC(=O)c4ccc(O)c(CC=C(C)C)c4)c(=O)oc3c2C)OC1(C)C 62.2

// lookup viability, T/C for CCc1c2c(nc3ccc(O)cc13)-c1cc3c(c(=O)n1C2)COC(=O)[C@]3(O)CC + Nc1ccc(C#CCN(C(=O)Cc2ncc(C(F)(F)F)cc2C(F)(F)F)c2ccc(F)cc2)nn1 82.2

// lookup viability, T/C for CCc1c2c(nc3ccc(O)cc13)-c1cc3c(c(=O)n1C2)COC(=O)[C@]3(O)CC + COC1C(OC(N)=O)C(O)C(Oc2ccc3c(O)c(NC(=O)c4ccc(O)c(CC=C(C)C)c4)c(=O)oc3c2C)OC1(C)C 73.1

// lookup viability, T/C for Cn1ncnc1[C@H]1c2n[nH]c(=O)c3cc(F)cc(c23)N[C@@H]1c1ccc(F)cc1 + COC1C(OC(N)=O)C(O)C(Oc2ccc3c(O)c(NC(=O)c4ccc(O)c(CC=C(C)C)c4)c(=O)oc3c2C)OC1(C)C 94.5

* * *

Can you tell me viability, T/C for the items I'm about to list?
Test system: 885724-159-R-J1-PDC complex spheroid viability
experimental-protocol: Anticancer human tumor 885724-159-R-J1-PDC cell line growth inhibition [POLQ];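 also: spheroids exposed to compounds for 7 days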
experimental-context: second compound 3.16 µM; first compound 0.00316 µM; active compounds read low
Method: Multicellular complex tumor spheroid response to Polymerase (POL) inhibitors (novobiocin, ART-558, RP6685) in combination with a variety of drugs and investigational agents in selected tumor cell lines The POL inhibitors (novobiocin, ART-558, and RP6685) were evaluated both individually and in combination with standard of care and investigational anticancer small molecules within a complex spheroid model of solid tumors. . […]
Give just the numeric value; % need not be written.

// lookup viability, T/C for C=CCn1c(=O)c2cnc(Nc3ccc(N4CCN(C)CC4)cc3)nc2n1-c1cccc(C(C)(C)O)n1 + Nc1ccc(C#CCN(C(=O)Cc2ncc(C(F)(F)F)cc2C(F)(F)F)c2ccc(F)cc2)nn1 96.3

// lookup viability, T/C for Cn1ncnc1[C@H]1c2n[nH]c(=O)c3cc(F)cc(c23)N[C@@H]1c1ccc(F)cc1 + COC1C(OC(N)=O)C(O)C(Oc2ccc3c(O)c(NC(=O)c4ccc(O)c(CC=C(C)C)c4)c(=O)oc3c2C)OC1(C)C 90.2

// lookup viability, T/C for CCc1c2c(nc3ccc(O)cc13)-c1cc3c(c(=O)n1C2)COC(=O)[C@]3(O)CC + Nc1ccc(C#CCN(C(=O)Cc2ncc(C(F)(F)F)cc2C(F)(F)F)c2ccc(F)cc2)nn1 78.8

// lookup viability, T/C for C=CCn1c(=O)c2cnc(Nc3ccc(N4CCN(C)CC4)cc3)nc2n1-c1cccc(C(C)(C)O)n1 + Cc1cccc(N(C)C(=O)C2C(O)CCN2c2nc(C)cc(C(F)(F)F)c2C#N)c1 92.2

// lookup viability, T/C for Cn1ncnc1[C@H]1c2n[nH]c(=O)c3cc(F)cc(c23)N[C@@H]1c1ccc(F)cc1 + Cc1cccc(N(C)C(=O)C2C(O)CCN2c2nc(C)cc(C(F)(F)F)c2C#N)c1 86.4

// lookup viability, T/C for C=CCn1c(=O)c2cnc(Nc3ccc(N4CCN(C)CC4)cc3)nc2n1-c1cccc(C(C)(C)O)n1 + COC1C(OC(N)=O)C(O)C(Oc2ccc3c(O)c(NC(=O)c4ccc(O)c(CC=C(C)C)c4)c(=O)oc3c2C)OC1(C)C 100

// lookup viability, T/C for CCc1c2c(nc3ccc(O)cc13)-c1cc3c(c(=O)n1C2)COC(=O)[C@]3(O)CC + Cc1cccc(N(C)C(=O)C2C(O)CCN2c2nc(C)cc(C(F)(F)F)c2C#N)c1 98

// lookup viability, T/C for CCc1c2c(nc3ccc(O)cc13)-c1cc3c(c(=O)n1C2)COC(=O)[C@]3(O)CC + COC1C(OC(N)=O)C(O)C(Oc2ccc3c(O)c(NC(=O)c4ccc(O)c(CC=C(C)C)c4)c(=O)oc3c2C)OC1(C)C 76.4

// lookup viability, T/C for Cn1ncnc1[C@H]1c2n[nH]c(=O)c3cc(F)cc(c23)N[C@@H]1c1ccc(F)cc1 + Nc1ccc(C#CCN(C(=O)Cc2ncc(C(F)(F)F)cc2C(F)(F)F)c2ccc(F)cc2)nn1 90

// lookup viability, T/C for COc1cccc(OCCCN)c1-c1cc(Nc2cnc(C#N)cn2)n[nH]1 + Nc1ccc(C#CCN(C(=O)Cc2ncc(C(F)(F)F)cc2C(F)(F)F)c2ccc(F)cc2)nn1 68.4

Where these numbers come from: PubChem BioAssay AID1963832
